Tested on: MDA-MB-231 breast
method_notes: NCI-60 one-dose screen, 48 h (100 = growth as untreated, 0 = no growth, -100 = all killed)
condition_description: 10 µM unless noted
About 83,000 compounds went through this panel and 20% of them were active in at least one assay; those are over-represented in the sample as a whole.
Flag rule - growth less than 30% flags criterion met; the remaining entries get criterion not met.

Example entries and their recorded answers appear below.
Oc1c(C(Nc2ccccn2)c2cccc(Oc3ccccc3)c2)ccc2cccnc12 (stereo not given) | criterion met
O=C(CCc1nnc2sc(COc3ccccc3)nn12)c1nc2ncccc2[nH]1 | criterion not met
O=C(NCc1ccco1)C1CN(c2ccc(Cl)cc2)N(c2ccc(Cl)cc2)C1=O (stereo not given) | criterion not met

Req: growth under 30%? Item: "COc1ccc2occ(C3=C(c4c[nH]c5ccccc45)C(=O)NC3=O)c2c1"
Resp: criterion met

Req: Moving on to the next molecule: "Cc1cc2c(c(C)c1Cl)C(=O)/C(=C/c1ccco1)O2"
Resp: criterion not met

Req: "COc1ccc(/C=C2\CCC/C(=C\c3ccc(OC)c(OC)c3)C2=O)cc1OC" ?
Resp: criterion met

Req: Same again, this time with "CCN(CC)c1cc(C)c2cc(NC(=O)c3cccc(OC)c3)ccc2n1"
Resp: criterion not met

Req: Can you handle "NC(CCl)=NCCC[C@H](N)C(=O)O" next?
Resp: criterion not met

Req: Next up: "O=c1c(-c2nc3ccccc3[nH]2)cc2ccccc2n1Cc1cn(Cc2ccccc2Cl)nn1"
Resp: criterion met

Req: Record: "O=C(Nc1ccc(Cl)cc1F)c1cc(F)ccc1O"
Resp: criterion met

###

Test system: SK-MEL-2 melanoma
method_notes: NCI-60 one-dose screen, 48 h
condition_description: 10 µM unless noted
Compounds without any hit were thinned out: in the full panel of roughly 83,000, 20% have a hit. The source made the active and inactive calls. How the source made its calls: active means growth percent below 10; inactive means the rest.
Permitted responses: YES for active, NO for inactive

Look over these answered cases.
Clc1ccc(Nc2nnc(-c3ccc4c(c3)OCO4)o2)cc1 | NO
NC(CCl)=NCCC[C@H](N)C(=O)O | NO
Clc1ccc(Nc2scc3[n+]2CCC3)cc1 | NO
CCOc1ccc(Nc2ccnc3cc(Cl)ccc23)cc1 | YES
COc1ccc(Br)c(/C=C2\SC(=Nc3ccc(O)cc3)NC2=O)c1 | NO
Nc1n[nH]c2ccc([C@@H]3Nc4ccc5[nH]ncc5c4[C@H]4[C@H]5CCC(C5)[C@H]43)cc12 | NO
CN(O)c1nc(N(C)O)nc(N2CCOCC2)n1 | NO
Cc1nn(-c2nc3ccccc3[nH]2)c2c1C(c1ccc(OCC(N)=O)cc1)CC(=O)N2 (configuration not stated) | NO

Req: Please share the test call associated with CCN1C(=O)N(CC)C2C1NN=c1s/c(=C3\C(=O)N(C(C)C)c4ccccc43)c(=O)n12 (configuration not stated) .
Resp: NO

Req: Repeat with "COC(=O)/C(CCC=C(C)C)=C1\[C@@H](OC(C)=O)C[C@@]2(C)[C@H]1CC(=O)N[C@H]1[C@@]3(C)CCNC(=O)[C@@H](C)[C@@H]3CC[C@@]12C"
Resp: NO

Req: Subsequent entry: "CCOC(=O)c1cc2c(n1Cc1ccccc1)-c1oncc1CCC2"
Resp: NO

Req: Repeat with "O=c1oc2ccc(F)cc2c(=O)n1-c1ccc(I)cc1F"
Resp: YES

###

Test system: HCC-2998 colon
method_notes: NCI-60 one-dose screen, 48 h (100 = growth as untreated, 0 = no growth, -100 = all killed)
condition_description: 10 µM unless noted
This is part of a sample that, as a whole, favours compounds with a hit. Of some 83,000 tested, about 20% had one in any assay.
test_readout: growth (%)
Write the value in % as a bare number.

COc1ccc(Cn2c(Br)c3c(c2-c2cc(OC)c(OC)c(OC)c2)CCc2sc(NC(C)=O)nc2-3)cc1 | 70.2
O=C(COc1cc(O)c2c(=O)cc(-c3ccccc3)oc2c1)Nc1ccccc1C(F)(F)F | 90
O=C(NCc1ccccc1)C1CN(c2ccc(Cl)cc2)N(c2ccc(Cl)cc2)C1=O (stereo not given) | 99.4
Cn1c2c(c(=O)[nH]c1=O)NC1=C(C(=O)c3ccccc31)C1(C=C(O)c3ccccc31)N2 (stereo not given) | 130
O=C(/C=C/c1ccc(Cl)cc1)c1ccc(Nc2nc(NCCO)nc(Nc3ccc(Cl)cc3)n2)cc1 | 20.2

Req: Recorded growth for O=C(c1nc2ccccc2[nH]1)C1C(c2ccc([N+](=O)[O-])cc2)C2CC3CCCCC3N2[C@@]12C(=O)Nc1cc(Cl)ccc12 (stereo not given in full) with HCC-2998 colon, please?
Resp: 31.6

Req: Field entry: "Fc1cccc(COc2ccc(Nc3ncnc4onc(-c5ccccc5)c34)cc2)c1"
Resp: 9.52

Req: # repeat for "COc1c2ccoc2c(/C=C/C=O)c2oc(-c3ccccc3)cc(=O)c12"
Resp: 104

Req: Same read-out for "Nc1no[n+]([O-])c1-c1nnc2c(n1)-c1ccccc1C2=O" ?
Resp: 68.1

Req: Entry "COc1cc(/C=C2\Oc3cc(OCCCN4CCCC4)ccc3C2=O)cc(OC)c1" please
Resp: 75.7

Req: Next molecule: "CCOC(=O)c1sc(-c2ccc(OS(=O)(=O)c3cccs3)c(C=O)c2)nc1C"
Resp: 46.4

Req: Try this molecule next: "CN(C)CCNc1cc(-c2ccccc2)nc2ccccc12"
Resp: -81.4

Req: Please do the same for "Nc1ccc(-c2nn3c(CCC(=O)c4nc5ncccc5[nH]4)nnc3s2)c(O)c1" as well.
Resp: 69.4

Req: Try this molecule next: "O=Cc1c(OCc2cnnn2CC(=O)Nc2ccc(Br)cc2)ccc2ccccc12"
Resp: 94.3

Req: Now the same for "COc1ccc(-c2nc(-c3ccccn3)c(-c3ccccn3)n2CC(C)C)cc1OC1CCCC1"
Resp: 24.4

Req: Field entry: "O=c1c2cc(F)ccc2sc2c(NCCCNCCO)nc3ccc(Cl)cc3c12"
Resp: 60.7

Req: Try the molecule O=C1CCC(N2C(=O)c3cccc(NCCCCCCOc4ccc(Nc5nccc(Nc6ccccc6)n5)cc4)c3C2=O)C(=O)N1 (stereo not given)
Resp: 98.4

Req: Would you mind doing "O=C(Nc1ccc(N2CCNCC2)cc1)c1[nH]ncc1Nc1ncnc2sc3c(c12)CCC3" as well?
Resp: -91.4

###

Reported growth values are given for each entry in this list.
System: UACC-257 melanoma
method_notes: NCI-60 one-dose screen, 48 h (100 = growth as untreated, 0 = no growth, -100 = all killed)
condition_description: 10 µM unless noted
About 83,000 compounds went through this panel and 20% of them were active in at least one assay; those are over-represented in the sample as a whole.
Please respond with the number in % and leave the unit unwritten.

COc1cc(C#N)cc2[nH]c(=O)oc12 | 106
COc1ccc(/C=C/C(=O)c2ccc(Nc3nc(NCCO)nc(Nc4ccc(Cl)cc4)n3)cc2)cc1 | 100
O=c1oc2ccc(I)cc2c(=O)n1-c1ccc(Br)cc1F | -13.6
O=C1Nc2ccccc2/C1=C/c1cccs1 | 100
CCCCc1c(CCC)c(=N)c2ccccc2n1C | 30.8

Req: For the compound "CCN(CC)CCNC(=O)C(Cl)=C1C(Cl)=C(Cl)C(Cl)=C1Cl" , what growth is on record?
Resp: 44.3

Req: Same question for "COc1cc(C=C2C(=O)N(C)C(=O)N(C)C2=O)cc(CN2CCCCC2)c1O" please.
Resp: 104

###

System: SF-268 CNS
method_notes: NCI-60 one-dose screen, 48 h
condition_description: 10 µM unless noted
This is part of a sample that, as a whole, favours compounds with a hit. Of some 83,000 tested, about 20% had one in any assay. The source made the active and inactive calls. The calls were made as follows: active = growth percent below 10; inactive = the rest.
Valid outcomes are listed here; reply with one: 1 for active, 0 for inactive

OC(c1ccccc1)c1nnc(SCc2ccccc2)n1Cc1ccccc1 (stereo not drawn) | 0
CC(C)Cn1c2c(c(=S)[nH]c1=O)CCC2 | 0
O=C(/C=C/c1ccccc1)c1ccc(Nc2nc(NCCO)nc(Nc3ccc(Cl)cc3)n2)cc1 | 0

Next:
Req: Tell me the assay call for "CC(C)C[C@H](C(=O)N[C@@H](C)C(N)=O)N1CC=CCN(O)S1(=O)=O" please.
Resp: 0

###

System: MDA-MB-435 melanoma
method_notes: NCI-60 one-dose screen, 48 h
condition_description: 10 µM unless noted
This is part of a sample that, as a whole, favours compounds with a hit. Of some 83,000 tested, about 20% had one in any assay. Active and inactive are the calls of the source. Rule for the calls: active = growth percent below 10; inactive = the rest.
Mark one answer only. Choices: YES = active, NO = inactive

Would you please look over these solved cases?
O=C(Nc1ccc(F)cc1F)c1cc(I)ccc1O | YES
O=C(/C=C/c1ccc(Cl)cc1)c1ccc(Nc2nc(NCCO)nc(Nc3ccc(Cl)cc3)n2)cc1 | NO
CCCc1c(C)c2sc(=O)[nH]c2[nH]c1=O | NO
O=c1c(-c2nc3ccccc3[nH]2)cc2ccccc2n1Cc1cn(Cc2ccc(F)cc2)nn1 | YES
O=C1c2cc(Cl)ccc2Oc2cc([N+](=O)[O-])ccc2N1c1ccc(F)cc1F | NO
C[n+]1c2ccccc2nc2ccc(NCCO)cc21 | NO

Req: How did this test come out for "O=C(Nc1ccc(C23CC4CC(CC(c5ccccc5)(C4)C2)C3)cc1)c1cccs1" ?
Resp: NO

Req: How about this molecule: "O=C(/C=C/c1ccc(F)cc1)c1ccc(Nc2nc(NCCO)nc(Nc3ccc(Cl)cc3)n2)cc1"
Resp: NO

Req: Moving on to "O=c1oc2ccc(Br)cc2c(=O)n1-c1ccc(Br)cc1F"
Resp: YES

Req: Another: "O=C(c1ccccc1)N(CCc1ccc(Cl)cc1)C(=S)N(C(=O)c1ccccc1)c1ccccc1"
Resp: NO

Req: Another molecule to look at: "CN1CCN(Cc2ccc(NC(=O)c3cncc(C#Cc4nc(N)nc5[nH]ncc45)c3)cc2C(F)(F)F)CC1"
Resp: NO

Req: Next up: CN1C(=O)N(C)C2C1NN=c1s/c(=C\c3ccc(Cl)cc3Cl)c(=O)n12 (centres undefined)
Resp: YES

Req: Now this one: "COc1ccccc1N1C(=N)S/C(=C\c2ccc(OCc3ccccc3F)cc2)C1=O"
Resp: NO

Req: Proceed to "Cc1cccc(NC(=O)c2sc3nc4c(cc3c2N)CCCC4)c1C"
Resp: YES

Req: Then this molecule: "CCC(C)(C)C(=O)O[C@H]1C[C@@H](C)C=C2C=C[C@H](C)[C@H](CC[C@@H]3CC=CC(=O)O3)[C@H]21"
Resp: NO

Req: Now this one: O=C(c1nc2ccccc2[nH]1)C1[C@@H](c2cccc(O)c2)C2CC3CCCCC3N2[C@@]12C(=O)Nc1cc(Cl)ccc12 (some centres undefined)
Resp: NO

Req: And NC(CCc1nc2ccccc2c(=O)[nH]1)C(=O)O (centres undefined) ?
Resp: NO

Req: Now consider "COc1cc2nc(NC3CCC3)nc(NC3CCN(C(C)C)CC3)c2cc1OC" .
Resp: YES
